pIC50 values, listed per item
- system: HLA-DRB1*0301 (human)
- method: competition binding
- recorded.conditions: modification not given
pIC50: −log10 of the molar value.

>  <binder>
VGYVDDTQFVRFDSD [p6]

>  <rel>
=

>  <pIC50>
6.22

$$$$
>  <binder>
EDLRSWTAADMAAQT [p27]

>  <rel>
<

>  <pIC50>
4.00

$$$$
>  <binder>
LTWQRDGEDQTQDTE [p43]

>  <rel>
=

>  <pIC50>
4.01

$$$$
>  <binder>
CDVGSDWRFLRGYHQ [p19]

>  <rel>
=

>  <pIC50>
5.82

$$$$
>  <binder>
RGYYNQSEAGSHTVQ [p16*]

>  <rel>
<

>  <pIC50>
4.00

$$$$
>  <binder>
VDLGTLRGYYNQSEA [p14*]

>  <rel>
<

>  <pIC50>
4.00

$$$$
>  <binder>
VRFDSDAASQRMEPR [p8*]

>  <rel>
=

>  <pIC50>
5.86

$$$$
